Attribution: patent US11209437B2

- EXPERIMENTAL PROTOCOL: Fluorescence of free probe prior to binding to a protein tag
- Type: physicochemical
Parameter Quantum yield of free probe: see the listing below.

Study these solved cases before continuing.
1. CN(CCOC(=O)NCc1ccc(COc2nc(N)nc3[nH]cnc23)cc1)c1ccc2cc(/C=C(\C#N)c3nc4ccccc4o3)sc2c1	<0.001
2. CN(CCOC(=O)NCc1ccc(COc2nc(N)nc3[nH]cnc23)cc1)c1ccc(/C=C(\C#N)c2nc3ccccc3s2)cc1	0.0019
3. CN(CCOC(=O)NCc1ccc(COc2nc(N)nc3[nH]cnc23)cc1)c1ccc(-c2ccc(/C=C(\C#N)C(=O)O)s2)cc1	<0.001
4. CN(C)c1ccc2nc(/C=C(\C#N)C(=O)NCc3ccc(COc4nc(N)nc5[nH]cnc45)cc3)sc2c1 [Reference Probe 113, reference compound]	<0.001
5. CN(CCOC(=O)NCc1ccc(COc2cc(Cl)nc(N)n2)cc1)c1ccc2cc(/C=C(\C#N)C(=O)OC(C)(C)C)sc2c1	<0.001

// recorded Quantum yield of free probe for CN(CCOC(=O)NCc1ccc(COc2nccc(N)n2)cc1)c1cc2sc(/C=C(\C#N)c3nc4ccccc4o3)cc2s1 : <0.001
